test system: NOMO1; assay: AUC of viability dose-response curve (% viability x log10 dose units); higher = less sensitive; settings: RPMI 5 mM glucose + 10% FBS; 48 h
result_type: AUC of viability dose-response curve
Please reply with the number alone, leaving off any unit.

# get_value(readout='AUC of viability dose-response curve', item= Cc1ccccc1C(=O)Nc1ccc(C(=O)N2CCCC(O)c3cc(Cl)ccc32)c(C)c1 (centres undefined) ) 471

# get_value(readout='AUC of viability dose-response curve', item= `Nc1ccc([S+](=O)([O-])Nc2ccnn2-c2ccccc2)cc1` ) 467

# get_value(readout='AUC of viability dose-response curve', item= `ClC/1=C(NCCN2CCOCC2)/C(=O)C3=C(C=CC=N3)C1=O` ) 410

# get_value(readout='AUC of viability dose-response curve', item= CC[C@@H]([C@H](C)O)n1ncn(-c2ccc(N3CCN(c4ccc(OCC5CO[C@@](Cn6cncn6)(c6ccc(F)cc6F)C5)cc4)CC3)cc2)c1=O (some centres undefined) ) 427

# get_value(readout='AUC of viability dose-response curve', item= `C/C=C/C(=O)N(CC)c1ccccc1C` ) 431

# get_value(readout='AUC of viability dose-response curve', item= `O=C(O)c1cc(/N=N/c2ccc([S+](=O)([O-])Nc3ccccn3)cc2)ccc1O` ) 466

# get_value(readout='AUC of viability dose-response curve', item= `CC(C)(O)CC(=O)NCCn1ccc2ncnc(Nc3ccc(Oc4cccc(C(F)(F)F)c4)c(Cl)c3)c21` ) 450

# get_value(readout='AUC of viability dose-response curve', item= `CN1\C=N/C2=CC=C(NC3=CC(=CC=C3C)NC(=O)C4=CC(=CC=C4)C(C)(C)C#N)C=C2C1=O` ) 377

# get_value(readout='AUC of viability dose-response curve', item= `COc1cccc2c1C(=O)c1c(O)c3c(c(O)c1C2=O)C[C@@](O)(C(=O)CO)C[C@@H]3O[C@H]1C[C@H](N)[C@H](O)[C@H](C)O1` ) 369

# get_value(readout='AUC of viability dose-response curve', item= COc1ccc(C(=O)CC2(O)C(=O)Nc3c(Cl)ccc(Cl)c32)cc1 (centres undefined) ) 416

# get_value(readout='AUC of viability dose-response curve', item= `CC(=O)Oc1ccccc1C(=O)Nc1ncc([N+](=O)[O-])s1` ) 464

# get_value(readout='AUC of viability dose-response curve', item= `CC12CC3CC(C)(C1)CC(N)(C3)C2` ) 457

# get_value(readout='AUC of viability dose-response curve', item= `O=C(N[C@H](CO)[C@H](O)c1ccc([N+](=O)[O-])cc1)C(Cl)Cl` ) 467

# get_value(readout='AUC of viability dose-response curve', item= `N[C@@H]1CONC1=O` ) 441

# get_value(readout='AUC of viability dose-response curve', item= `C=CC(=O)Nc1cc(NC(=O)c2ccc(C)c(NC(=O)c3ccno3)c2)cc(C(F)(F)F)c1` ) 457

# get_value(readout='AUC of viability dose-response curve', item= `Nc1ncnc2c1c(-c1cccc(OCc3ccccc3)c1)cn2[C@H]1C[C@@H](CN2CCC2)C1` ) 459

# get_value(readout='AUC of viability dose-response curve', item= `CN(C)CC(C)(C)CNc1nn2c(-c3ccccc3)nnc2cc1C1CCC1` ) 447

# get_value(readout='AUC of viability dose-response curve', item= `C[C@@H](CN1CC(=O)NC(=O)C1)N1CC(=O)NC(=O)C1` ) 296

# get_value(readout='AUC of viability dose-response curve', item= `COC1=CC=C2[C@H]3CC[C@]4(C)[C@H](CC[C@H]4[C@@H]3CCC2=C1)NCCCCCCN5C(=O)\C=C/C5=O` ) 444

Each recorded value in this set is attributed to the supplement of paper PMC11451515.
